ASSAY_NAME: Thermodynamic properties of sublimation and vaporization from Clarke and Glew fit of vapor pressures
PROTOCOL_CONDITIONS: crystalline phase, θ = 298.15 K, p° = 10^5 Pa
MEASUREMENT_LABEL: ΔcdgHm°(θ) standard molar enthalpy of sublimation (kcal/mol)

> print(dat)
                                   molecule  quantitative.result
1     O=Cc1ccc(Br)cc1 [4-Bromobenzaldehyde]                   19
2  O=Cc1ccc(Cl)cc1Cl [2,4-Dichlorobenzaldehyde]                 19.5
3  O=Cc1cccc(Cl)c1Cl [2,3-Dichlorobenzaldehyde]                 19.4
4  O=Cc1c(Cl)cccc1Cl [2,6-Dichlorobenzaldehyde]                 20.5
5    O=Cc1ccc(Cl)cc1 [4-Chlorobenzaldehyde]                 17.5

---

ASSAY_NAME: Thermodynamic properties of sublimation and vaporization from Clarke and Glew fit of vapor pressures
PROTOCOL_CONDITIONS: crystalline phase, θ = 298.15 K, p° = 10^5 Pa
MEASUREMENT_LABEL: ΔcdgGm°(θ) standard molar Gibbs energy of sublimation (kcal/mol)

> print(dat)
        given.smiles  quantitative.result
1  O=Cc1ccc(Cl)cc1Cl                6.245
2  O=Cc1c(Cl)cccc1Cl                 6.85
3    O=Cc1ccc(Br)cc1                5.918
4  O=Cc1cccc(Cl)c1Cl                6.286
5    O=Cc1ccc(Cl)cc1                5.131

---

ASSAY_NAME: Thermodynamic properties of sublimation and vaporization from Clarke and Glew fit of vapor pressures
PROTOCOL_CONDITIONS: liquid phase including supercooled liquid, θ = 298.15 K, p° = 10^5 Pa
Text: The experimental crystalline and liquid vapor pressures were independently fitted by the Clarke and Glew Equation (1) in its truncated form:(1) Rlnp/p^°=−ΔcdgGm°θ/θ+ΔcdgHm°θ1/θ−1/T+ΔcdgCp,m°θθ/T−1+lnT/θ where R is the molar gas constant, p is the vapor pressure at the temperature T, p° is a selected reference pressure (p° = 10^5 Pa in this work), and θ is a reference temperature. […]
MEASUREMENT_LABEL: ΔcdgGm°(θ) standard molar Gibbs energy of vaporization (kcal/mol)

> print(dat)
        given.smiles  quantitative.result
1    O=Cc1ccc(Cl)cc1                4.861
2  O=Cc1ccc(Cl)cc1Cl                5.593
3  O=Cc1c(Cl)cccc1Cl                6.202
4    O=Cc1ccc(Br)cc1                5.483
5  O=Cc1cccc(Cl)c1Cl                5.779

---

ASSAY_NAME: Gibbs energy of hydration and Henry's law volatility constant calculated from sublimation and solubility data
PROTOCOL_CONDITIONS: 25 °C, calculated by Equation (4)
MEASUREMENT_LABEL: Gibbs energy of hydration ΔhydrGm° (kcal/mol)

> print(dat)
                                   compound                   measurement.label  quantitative.result
1     O=Cc1ccc(Br)cc1 [4-Bromobenzaldehyde]  Gibbs energy of hydration ΔhydrGm°                -4.49
2    O=Cc1ccc(Cl)cc1 [4-Chlorobenzaldehyde]  Gibbs energy of hydration ΔhydrGm°                -4.23
3  O=Cc1ccc(Cl)cc1Cl [2,4-Dichlorobenzaldehyde]  Gibbs energy of hydration ΔhydrGm°                -3.94
4  O=Cc1c(Cl)cccc1Cl [2,6-Dichlorobenzaldehyde]  Gibbs energy of hydration ΔhydrGm°                -4.73
5  O=Cc1cccc(Cl)c1Cl [2,3-Dichlorobenzaldehyde]  Gibbs energy of hydration ΔhydrGm°                -3.99

---

ASSAY_NAME: pH of the saturated aqueous solutions
Type: physicochemical
PROTOCOL_CONDITIONS: saturated aqueous solution of the solubility experiment
MEASUREMENT_LABEL: pH of the saturated solution

> print(dat)
        given.smiles             measurement.label  quantitative.result
1  O=Cc1cccc(Cl)c1Cl  pH of the saturated solution                 6.43
2    O=Cc1ccc(Br)cc1  pH of the saturated solution                 6.82
3    O=Cc1ccc(Cl)cc1  pH of the saturated solution                 6.61
4  O=Cc1ccc(Cl)cc1Cl  pH of the saturated solution                 6.57
5  O=Cc1c(Cl)cccc1Cl  pH of the saturated solution                 6.39

---

ASSAY_NAME: Thermodynamic properties of sublimation and vaporization from Clarke and Glew fit of vapor pressures
PROTOCOL_CONDITIONS: liquid phase including supercooled liquid, θ = 298.15 K, p° = 10^5 Pa
From the text: The experimental crystalline and liquid vapor pressures were independently fitted by the Clarke and Glew Equation (1) in its truncated form:(1) Rlnp/p^°=−ΔcdgGm°θ/θ+ΔcdgHm°θ1/θ−1/T+ΔcdgCp,m°θθ/T−1+lnT/θ where R is the molar gas constant, p is the vapor pressure at the temperature T, p° is a selected reference pressure (p° = 10^5 Pa in this work), and θ is a reference temperature. […]
MEASUREMENT_LABEL: ΔcdgSm°(θ) (Equation (2)) standard molar entropy of vaporization (J·K^−1·mol^−1)

> print(dat)
        given.smiles  quantitative.result
1    O=Cc1ccc(Br)cc1                128.3
2  O=Cc1ccc(Cl)cc1Cl                129.1
3  O=Cc1c(Cl)cccc1Cl                135.0
4    O=Cc1ccc(Cl)cc1                122.0
5  O=Cc1cccc(Cl)c1Cl                129.2

---

ASSAY_NAME: Equilibrium solubility in water, saturation shake-flask method with UV-vis
PROTOCOL_CONDITIONS: 25 °C, thermodynamic from solid
MEASUREMENT_LABEL: solubility at 72 h (µM)

Record excerpt, results attached:
> print(dat)
        given.smiles  measurement.units  quantitative.result
1  O=Cc1cccc(Cl)c1Cl                 µM                  853
2  O=Cc1ccc(Cl)cc1Cl                 µM                  821
3    O=Cc1ccc(Br)cc1                 µM                 3710

[P] O=Cc1c(Cl)cccc1Cl
[Q] O=Cc1ccc(Cl)cc1
[ask] I need your help: which of the pair P , Q has higher solubility at 72 h? Answer by stating the label of the chosen item.
[reply] Q
(Q: 8830 µM, P: 1130 µM)

---

ASSAY_NAME: Thermodynamic properties of sublimation and vaporization from Clarke and Glew fit of vapor pressures
PROTOCOL_CONDITIONS: crystalline phase, θ = 298.15 K, p° = 10^5 Pa
Text: The experimental crystalline and liquid vapor pressures were independently fitted by the Clarke and Glew Equation (1) in its truncated form:(1) Rlnp/p^°=−ΔcdgGm°θ/θ+ΔcdgHm°θ1/θ−1/T+ΔcdgCp,m°θθ/T−1+lnT/θ where R is the molar gas constant, p is the vapor pressure at the temperature T, p° is a selected reference pressure (p° = 10^5 Pa in this work), and θ is a reference temperature. […]
MEASUREMENT_LABEL: ΔcdgSm°(θ) (Equation (2)) standard molar entropy of sublimation (J·K^−1·mol^−1)

> print(dat)
                                   compound  quantitative.result
1  O=Cc1cccc(Cl)c1Cl [2,3-Dichlorobenzaldehyde]                184.1
2    O=Cc1ccc(Cl)cc1 [4-Chlorobenzaldehyde]                173.8
3     O=Cc1ccc(Br)cc1 [4-Bromobenzaldehyde]                183.3
4  O=Cc1c(Cl)cccc1Cl [2,6-Dichlorobenzaldehyde]                192.0
5  O=Cc1ccc(Cl)cc1Cl [2,4-Dichlorobenzaldehyde]                185.7
